Assay: Example 8 Part I: multiple rising oral dose pharmacokinetics of NC-758
Format: in vivo
Details: male, human, plasma, 200 mg, 200 mg BID, Day 12, young (18-45 years) male, fasted, mean
METRIC NAME: Cmax (ng/mL)
Your answer should be a plain number; it is taken to be in ng/mL.

Prompt: What does the record list as Cmax for NCCCS(=O)(=O)O [3-APS, 3-amino-1-propanesulfonic acid] ?
Response: 581

====

Test: Example 7 Part I: single rising oral dose pharmacokinetics of NC-758 (Table 3 tablet), plasma 3-APS by LC-MS/MS
Format: in vivo, human
Conditions: human, plasma; 300 mg single oral, young (18-45 years) male, fasted; mean
METRIC NAME: AUC(0-inf)
State the result as a value with its unit after it.

Prompt: Recorded AUC(0-inf) of NCCCS(=O)(=O)O , please.
Response: 4460 ng·h/mL
